- TESTED_ON: HA of ca A/Wuhan/359/95 (H3N2) virus (influenza A virus)
- ASSAY_COMMENT: cell-based or functional assay
RECORDED_METRIC: Neutralization IC50, H3-WH95 (µg/mL)

• Antibody 15 (antibody, V domains shown) VH: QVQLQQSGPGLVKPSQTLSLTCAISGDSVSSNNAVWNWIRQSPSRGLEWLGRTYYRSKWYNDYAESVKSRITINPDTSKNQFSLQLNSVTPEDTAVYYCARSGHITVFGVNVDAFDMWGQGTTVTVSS VL: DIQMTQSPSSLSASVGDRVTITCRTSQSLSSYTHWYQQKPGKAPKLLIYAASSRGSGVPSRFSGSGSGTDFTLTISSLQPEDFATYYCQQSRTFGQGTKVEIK = 3.32
• Antibody 12 (antibody, V domains shown) VH: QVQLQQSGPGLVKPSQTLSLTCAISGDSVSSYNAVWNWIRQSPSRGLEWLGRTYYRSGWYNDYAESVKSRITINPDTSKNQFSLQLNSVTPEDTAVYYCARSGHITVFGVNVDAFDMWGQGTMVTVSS VL: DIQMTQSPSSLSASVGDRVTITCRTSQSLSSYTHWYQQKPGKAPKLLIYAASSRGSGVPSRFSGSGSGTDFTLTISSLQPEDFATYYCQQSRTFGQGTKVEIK = 2.09
• Antibody 11 (antibody, V domains shown) VH: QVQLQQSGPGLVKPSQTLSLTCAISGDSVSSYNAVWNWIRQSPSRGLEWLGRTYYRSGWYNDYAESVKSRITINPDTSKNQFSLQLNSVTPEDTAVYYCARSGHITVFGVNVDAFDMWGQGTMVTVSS VL: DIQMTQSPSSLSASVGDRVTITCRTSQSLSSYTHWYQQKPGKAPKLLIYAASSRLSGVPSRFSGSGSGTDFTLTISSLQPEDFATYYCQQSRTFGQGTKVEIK = 2.45
